Assign TGI to each entry below.
# System: KM20L2 colon
# ASSAY_EXPLANATION: NCI tumour cell line growth inhibition, 48 h

Problem: I have this compound here, "CCCCCCCCCCCCCCCCCC(=O)O[C@H](COC(=O)CCCCCCCCCCC)COC(=O)CCCCCCCCCCCCCCC" , and I need its recorded TGI.
Solution: > 100 µM

Problem: Using the record for "Cc1cc(C)[n+](CCOc2ccc(/C(=C(/Cl)c3ccccc3)c3ccccc3)cc2)c(C)c1" , report its TGI.
Solution: 12.7 µM

Problem: Consider the compound shown here: "CN(C)C(=S)/N=c1\ss/c(=N\C(=S)N(C)C)n1-c1ccc(Cl)c(Cl)c1" What is its recorded TGI?
Solution: > 100 µM

Problem: # get_value(readout='TGI', item= O=C(Nc1cc(Cl)ccc1Cl)C(=O)C(c1cnc2ccccc2n1)[N+](=O)[O-] (configuration not stated) )
Solution: > 100 µM

Problem: Record request: TGI value, item "COc1cccc(-n2c3nc(=O)n(C)c(=O)c-3nc3ccccc32)c1"
Solution: 62.6 µM

Problem: Any idea what its TGI is? The compound is CC(=O)C1=C(C)NC2C=CC=CN12 (configuration not stated)
Solution: > 100 µM

Problem: Entry under review: "Nc1nc(CCl)nc(Nc2ccccc2)n1" . Reported TGI?
Solution: 35.9 µM

Problem: What value of TGI has been recorded for this entry: O=c1[nH]c2cc(Cl)ccc2nc1/C(=N\O)C(O)c1ccc(Cl)cc1Cl (configuration not stated)
Solution: > 100 µM

Problem: Could you share which TGI value was measured for "COc1cc(C)c2c(c1C)OC(=O)c1c(C)c(Cl)c(O)c(C=O)c1O2" ?
Solution: 69.5 µM

Problem: // lookup TGI for "COc1ccc2nc3ccccc3c(NCCCCCCN(CCCl)CCCl)c2c1"
Solution: 2.07 µM

Problem: Given the entry "O=C1c2ccccc2CCCCCCCCCCC12OCCCO2" , report its measured TGI.
Solution: 71.7 µM

Problem: Quick one: TGI for CC(=O)Nc1cc2c(s1)CCC1CC(=O)NN=C21 (configuration not stated) ?
Solution: > 100 µM

Problem: Requested read-out: TGI. Entry: "CCCCOC(=O)NC(=O)c1cn(CCCOC(=O)NCCCCCCNC(=O)OCCCn2cc(C(=O)NC(=O)OCCCC)c(=O)[nH]c2=O)c(=O)[nH]c1=O"
Solution: > 100 µM

Problem: # query: TGI of entry COc1cccc(C2CC(C)=Nc3c(ccc4c3C(=O)c3ccccc3C4=O)N2)c1O (configuration not stated)
Solution: > 100 µM

Problem: What measured TGI goes with "COc1ccc(O)cc1" ?
Solution: > 100 µM

Problem: Reported TGI for "Oc1cc(C2OCCCO2)cc(O)c1O" : what is it?
Solution: > 100 µM

Problem: Requested field: TGI. Item: "O=C(CSc1nnc(Cc2ccccc2)o1)Nc1ccc([N+](=O)[O-])cc1"
Solution: > 100 µM

---

# Tested on: SK-MEL-5 melanoma
# ASSAY_EXPLANATION: NCI tumour cell line growth inhibition, 48 h
Task for the reader: assign each of the following compounds its reported TGI.

Problem: I'd like to know its TGI. The compound in question is CCC(C#N)NC(=O)NC(C#N)CC (stereo not given)
Solution: > 100 µM

Problem: Item under review: "Cc1cc[c-]cc1.Fc1c[c-]c(-c2ccccn2)c(F)c1.[Pt+2].c1ccc(P(C[PH+](c2ccccc2)c2ccccc2)c2ccccc2)cc1" . Reported TGI?
Solution: 3.05 µM

Problem: Name the reported TGI value associated with the compound "Nc1ccc2[nH]c3c(-c4ccccc4)nccc3c2c1"
Solution: > 31.6 µM

Problem: Value lookup for TGI; key = "C=C1C(=O)O[C@H]2[C@H]1CC/C(COC(=O)c1ccc(Cl)nc1)=C\CC[C@@]1(C)O[C@@H]21"
Solution: 11.1 µM

Problem: GET /values?readout=TGI&item= "NC1=NS(=O)(=O)Nc2nc(-c3ccc([N+](=O)[O-])cc3)[nH]c21"
Solution: > 100 µM

---

Consider compounds characterized by their GI50 with NCI-H460 lung.

Problem: Consider the compound shown here: "COc1cc(C2=C(c3cn(C)c4ccccc34)COC2=O)cc(OC)c1OC" What is its recorded GI50?
Solution: 53.2 nM

Problem: Tell me the measured GI50 of "Oc1cn(-c2ccc(Cl)cc2)nc1-c1n[nH]c(=S)n1C1CCCCC1" , please.
Solution: 334 nM

Problem: Which GI50 value belongs to "COc1cc2c(c(OC)n1)[C@]1(O)[C@H](O)[C@H](CN(C)C)[C@@H](c3ccccc3)[C@]1(c1ccc(C#N)cc1)O2" ?
Solution: < 10 nM

Problem: GET /values?readout=GI50&item= "Cc1cc2c(cc1Cl)SC(=Nc1ccc(Cl)cc1)N(S(=O)(=O)c1ccccc1)S2(=O)=O"
Solution: 11800 nM

Problem: I'd like to know its GI50. The compound in question is "COc1cc2ncn(-c3cc(OCCc4ccccc4)c(C(N)=O)s3)c2cc1OC"
Solution: > 25000 nM

---

Exercise: for every item that follows, state its recorded TGI.
# System: NCI-H460 lung
# ASSAY_EXPLANATION: NCI tumour cell line growth inhibition, 48 h

Problem: Which TGI is listed for "C1C[OH+]CCNCC[OH+]CC[OH+]CCN1.[Cl-].[Pt+4]" ?
Solution: > 100 µM

Problem: Requested field: TGI. Item: O=C(OCC1OC2OC(c3ccccc3)(n3ccc4c([N+](=O)[O-])ccnc43)OC2C1OC(=O)c1ccccc1)c1ccccc1 (stereo not given)
Solution: > 100 µM

Problem: Need TGI, item "NC(N)=NCCCCCNc1noc(Cc2c[nH]c3cc(Br)ccc23)n1"
Solution: 43.3 µM

Problem: What TGI value was documented for this molecule, "CCc1ccc2oc(-c3cc(O)c(-c4nc5cc(CC)ccc5o4)cc3O)nc2c1" ?
Solution: > 100 µM

Problem: Record request: TGI value, item "Cc1ccc(S(=O)(=O)OCC(=O)O)cc1"
Solution: > 100 µM

Problem: What does the record list as TGI for "CCOC(=O)c1ccc(N2C(=S)N(C(=O)c3ccccc3)C(=Nc3ccccc3)C2=Nc2ccccc2)cc1" ?
Solution: > 100 µM

Problem: # get_value(readout='TGI', item= "COc1ccc(O)cc1" )
Solution: > 100 µM

Problem: Which TGI is listed for "COc1ccc(/C=N/N=C(\N)NO)c(O)c1" ?
Solution: > 10 µM

Problem: # lookup: TGI of "COc1cc(C2=C(c3cn(C)c4ccccc34)COC2=O)cc(OC)c1OC"
Solution: 1.68 µM

Problem: // lookup TGI for C=CCSS/C=C/CS(=O)CC=C (stereo not given)
Solution: > 100 µM

Problem: Given the entry C=C1C(=O)CC2C(=O)C(C)(O)CC/C=C(\C)C(=O)CC12 (stereo not given) , report its measured TGI.
Solution: > 100 µM

Problem: Need TGI of "COc1ccc(C(=O)COc2cccc(/C=C3\Oc4ccc5ccccc5c4C3=O)c2)cc1" , thanks.
Solution: 52.6 µM

Problem: Report TGI for CCC(C#N)NC(=O)NC(C#N)CC (stereo not given) please.
Solution: > 100 µM

Problem: Fill in: TGI of "NC(=O)NNC(=O)c1nc[nH]c1[N+](=O)[O-]" is ___
Solution: > 100 µM

Problem: What value of TGI has been recorded for this entry: "CCn1nc2c3c(ncn3C(C)(C)O2)c1=O"
Solution: > 100 µM

Problem: Could you share which TGI value was measured for "C[C@]12CC[C@@H]3c4ccc(O)cc4CC[C@H]3[C@@H]1CC[C@@H]2NS(=O)(=O)c1cccc(F)c1" ?
Solution: 7.18 µM

Problem: // lookup TGI for OCC1OC(n2cnc3c(Cl)nc(Nc4ccccc4)nc32)CC1O (stereo not given)
Solution: > 100 µM

Problem: Data request, read-out TGI, for "COc1ccc(/C(Cl)=C(\C=O)c2ccc(F)cc2)cc1OC"
Solution: 43 µM

Problem: // lookup TGI for "COc1ccc2c(O)cc3c(c2c1)[C@H](CCl)CN3C(=O)c1cc2cc(NC(=O)CCN3CCOCC3)ccc2[se]1"
Solution: 1.09 µM

Problem: Return reported TGI; argument: "COC(=O)C1=C2SCc3cccc(c3)CSC3=C(C(=O)OC)SC(=C(S2)S1)S3"
Solution: > 100 µM

---

For each entry below, report its TGI value.
# Tested on: HT29 colon
# ASSAY_EXPLANATION: NCI tumour cell line growth inhibition, 48 h

Problem: I would be grateful if you could share the reported TGI for "CN1NC(=Nc2ccccc2)Sc2c1cnn(-c1ccccc1)c2=O" .
Solution: > 100 µM

Problem: Return reported TGI; argument: CC1=NN(c2ccc(S(=O)(=O)O)cc2)C2(C1)SCC(=O)N2c1nc2ccccc2s1 (stereo not drawn)
Solution: > 100 µM

Problem: Which TGI is reported for this compound? "O=C(COc1ccc(/C=C2\CSc3ccccc3C2=O)cc1)Nc1nccs1"
Solution: 16.2 µM

Problem: Data request, read-out TGI, for CC(=O)OC1CC2C(C)(C)OC(=O)CC(OC(C)=O)[C@]2(C)C2CCC3(C)C(=CCC3[C@H]3COC(=O)C3)[C@]12C (stereo partly drawn)
Solution: > 100 µM

Problem: // TGI lookup, key: "Nc1ccc(N=Nc2ccccc2)cc1"
Solution: > 100 µM

Problem: Could you share which TGI value was measured for CCCCC1(CN2CCOCC2)S/C(=N/c2nc(CC(=O)OCC)cs2)NC1=O (stereo not drawn) ?
Solution: > 100 µM

Problem: Query (compound): "O=C(Nc1ccc(CO)cc1)c1coc2ccccc2c1=O" ; field requested: TGI
Solution: > 100 µM

Problem: Request the reported TGI associated with "O=C1c2ccccc2CCCCCCCCCCC12OCCCO2"
Solution: 42.9 µM

Problem: Fill in: TGI of "CN(C)Cc1cc(C(=O)/C=C/c2ccccc2Cl)cc(CN(C)C)c1O" is ___
Solution: 9.94 µM

Problem: Any idea what TGI was measured for "Cc1ccc2c(=O)cc(-c3cccs3)[nH]c2n1" ?
Solution: > 70.9 µM

Problem: Endpoint output: TGI of C=CCNC(=O)N(CCC)CCCCC(NC(C)=O)C(=O)NCc1ccccc1 (stereo not drawn) . Value?
Solution: > 100 µM

Problem: Which TGI reading was recorded for the compound "CCOC(=N)CC(=O)Nc1cccc(C)c1C" ?
Solution: > 100 µM

Problem: Request the reported TGI associated with CC1CCOc2ccc(cc2)C=Nc2ccc(cc2)CCc2ccc(cc2)N=Cc2ccc(cc2)OCC1 (stereo not drawn)
Solution: > 100 µM

Problem: I'd like to know its TGI. The compound in question is COc1cc2c(cc1O)C1Cc3ccc(OC)c(O)c3C(C2)N1C (stereo not drawn)
Solution: > 100 µM

Problem: Give its TGI value. Item: "O=c1c2ncn(COCCCl)c2n(-c2ccccc2)c(=S)n1-c1ccccc1"
Solution: > 100 µM

Problem: For the compound shown here, "COc1cc2ccc3c4cc(OC)c(OC(C)C)cc4cnc3c2cc1OC" , give the reported TGI.
Solution: > 100 µM

Problem: Could you tell me which TGI is on file for "COc1ccc2c(c1)[C@@]13CCCC[C@H]1[C@@H](C2)N(C)CC3=O" ?
Solution: 37.5 µM

Problem: Bench note: what TGI did CC(=O)N1N=C(c2ccc3ccccc3c2O)CC1C(=O)c1ccco1 (stereo not drawn) show?
Solution: > 100 µM

Attribution: PubChem BioAssay (NCI)
